Entries and their IC50 values follow.
System: A2780 (human ovarian cancer cells)
Assay: Anticancer activity, WST-8 viable cell assay, A2780
Assay type: cell-based
Conditions: 48 hours culture, mean of three experiments, read-out: IC50 (50% cell growth inhibitory concentration)
Protocol: As a control, cisplatin was tested in the same way. […] Cells were washed with phosphate buffered saline (PBS), the cell count was calculated, and then 5×10^4 cells/ml suspension was prepared using the same medium. […] Thereafter, viable cell counts were evaluated by WST-8 assay. […] Absorbance at 450 nm of water-soluble formazan generated by enzymatic activity of mitochondria in cells was measured with a microplate reader (Spectra Max PLUS; Molecular Devices). […]
Express the result in nM but write the number alone.

>>> df
                                   compound  quantitykind  valuereported
0  CP(c1ccccc1P(C)C(C)(C)C)C(C)(C)C.CP(c1ccccc1P(C)C(C)(C)C)C(C)(C)C.[Au+].[Cl-] (centres unmarked)          IC50           1100

Next compound, please.
Item: N.N.[Cl][Pt][Cl] [Cisplatin, cisplatin, reference compound] Test system: A2780 (human ovarian cancer cells) Read-out: IC50 Value: ?
2800
